Data origin: patent US20220249679A1

assayed-target: T1, Human CD138-Fc protein (human, UniProt P18827 23-254)
T1 construct: also called hCD138-Fc
T1 sequence: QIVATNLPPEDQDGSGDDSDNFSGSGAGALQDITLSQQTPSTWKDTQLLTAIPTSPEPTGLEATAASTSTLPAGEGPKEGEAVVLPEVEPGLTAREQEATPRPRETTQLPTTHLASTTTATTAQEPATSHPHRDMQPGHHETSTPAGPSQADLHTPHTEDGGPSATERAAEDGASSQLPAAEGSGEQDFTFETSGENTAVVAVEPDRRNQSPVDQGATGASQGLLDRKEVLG
protocol-summary: summary table; repeats the EC50 (nM) of Table 21, unit not given
Recorded ELISA CD138 Fc binding values for a group of binders are listed next.
Reply briefly: the number, and no unit.

{"binder": "F6 ckf-rep (antibody, V domains shown, Humanized F12P16F6 expressed as whole antibody with human constant regions (kappa light chain)) VH: QVQLVQSGAEVVKPGASVKLSCKASGYTFTSYYLYWVKKAPGQGLDWIGEIYPRSGGTNINEKFLSRVTLTADTSTSTAYLELSSLTSEDTAVYYCTRSLLYWGQGTTLTVSS VL: DVVMTQSPLSLSVTLGQPASISCKSSQSLLASDGKTYLNWLQQRPGQSPRRLIYLVSKLDSGVPNRFSGSGSGTDFTLQISRVEAEDVGLYYCWQGAHFPFTFGSGTKLEIKR", "ELISA CD138 Fc binding": 0.535}

# input for lookup
Req: Please look up its ELISA CD138 Fc binding: F6 f1ks-rep (antibody, V domains shown, Humanized F12P16F6 expressed as whole antibody with human constant regions (kappa light chain)) VH: QVQLQQSGAEVVKPGASVKLSCKASGYTFTSYYLYWVKKAPGQGLDWIGEIYPRSGGTNINEKFLSRVTLTADTSTSTAYMDLSSLTSEDTAVYYCTRSLLYWGQGTTLTVSS VL: DVVMTQTPLSLSVTPGQPASISCKSSQSLLASDGKTYLNWLLQRPGQSPKRLIYLVSKLDSGVPNRFSGSGSGTDFTLQISRVEAEDVGLYYCWQGAHFPFTFGSGTKLEIKR
Resp: 0.762
